# measurement-target: human DGKζ (Homo sapiens (Human))
# Sequence (Q13574 other isoform, or with tags, fused parts or gaps): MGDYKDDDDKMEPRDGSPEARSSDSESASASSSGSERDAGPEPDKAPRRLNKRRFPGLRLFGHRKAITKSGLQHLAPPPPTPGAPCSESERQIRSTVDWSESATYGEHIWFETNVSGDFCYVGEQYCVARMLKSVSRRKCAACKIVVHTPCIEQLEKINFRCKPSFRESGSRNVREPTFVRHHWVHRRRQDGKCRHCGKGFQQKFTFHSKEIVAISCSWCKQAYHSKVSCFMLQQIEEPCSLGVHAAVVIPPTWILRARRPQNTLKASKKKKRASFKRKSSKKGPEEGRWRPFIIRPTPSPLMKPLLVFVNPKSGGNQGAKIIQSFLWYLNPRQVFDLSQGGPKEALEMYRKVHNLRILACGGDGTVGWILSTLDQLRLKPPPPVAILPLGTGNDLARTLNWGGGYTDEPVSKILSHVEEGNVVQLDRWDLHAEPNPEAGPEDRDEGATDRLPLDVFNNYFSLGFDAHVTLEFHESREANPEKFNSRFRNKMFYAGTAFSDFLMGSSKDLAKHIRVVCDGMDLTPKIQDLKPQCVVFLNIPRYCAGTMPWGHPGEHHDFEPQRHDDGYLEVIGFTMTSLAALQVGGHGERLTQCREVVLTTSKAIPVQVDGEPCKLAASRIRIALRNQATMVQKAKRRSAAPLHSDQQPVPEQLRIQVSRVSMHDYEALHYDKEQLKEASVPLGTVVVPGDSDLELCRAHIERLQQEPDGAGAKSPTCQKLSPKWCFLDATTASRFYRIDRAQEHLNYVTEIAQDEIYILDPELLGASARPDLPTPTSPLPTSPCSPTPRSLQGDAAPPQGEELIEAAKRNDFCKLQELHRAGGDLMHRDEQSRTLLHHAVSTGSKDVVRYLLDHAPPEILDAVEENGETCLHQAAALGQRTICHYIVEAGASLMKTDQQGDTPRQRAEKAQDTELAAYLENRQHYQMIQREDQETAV
# test-method-notes: Human DGKζ kinase activity inhibition assay (ADP-Glo)
# Format: biochemical
# condition-description: in vitro human DGKζ kinase activity inhibition assay; read-out: IC50
experimental-endpoint: log10 IC50 (log10 of the value in nM)
Answers are given as log10 of IC50 in nM.

CC(C(N)=O)N(c1ccc(F)cc1)c1nc(N)c(C(=O)c2ccc(OCC(=O)N3CCC[C@H]3C(N)=O)cc2)s1 (mixture of isomers); 2.56

Please look at the items below and tell me log10 IC50 for each one, in order.
1. CC(C(N)=O)N(c1ccc(F)c(F)c1)c1nc(N)c(C(=O)c2ccc(O)cc2)s1 (single isomer, unassigned; enantiomer 1) [Example 287]
2. CC(C(N)=O)N(c1ccc(F)cc1)c1nc(N)c(C(=O)c2ccc(OC(C)(C)C(=O)NCc3ccc(Cl)cc3)cc2)s1 (racemic)
3. CC(C(N)=O)N(c1ccc(Cl)cc1)c1nc(N)c(C(=O)c2ccc(OC(F)F)cc2)s1 (racemic) [Example 47]
4. CC(C(N)=O)N(c1ccc(OC(F)F)c(Cl)c1)c1nc(N)c(C(=O)c2ccccc2)s1 (racemic)
5. CC(C(N)=O)N(c1ccc(OCc2ccccc2)cc1)c1nc(N)c(C(=O)c2ccc(OC(F)F)cc2)s1 (single isomer, unassigned) [Example 182.1]

Result block:
1. 1.26
2. 1.30
3. 0.58
4. 1.82
5. 1.92
